Values from patent US8937091B2

assay_system: TGase (Cavia porcellus)
Format: biochemical
readout_label: TG-activity-inhibiting action or protein-crosslinking-inhibiting action (in words)

sample_smiles	recorded_measurement
C=CC(=O)c1ccccc1	high
CCc1nccnc1C(=O)CCN(Cc1ccccc1)C(C)(C)C	strongly
CCN(CCC(=O)c1ccco1)Cc1ccccc1	strongly
C=CC(=O)c1cccc2ccccc12	high
CC(C)(C)N(CCC(=O)c1cccnc1)Cc1ccccc1	strongly
Cc1csc(C(=O)CCN(Cc2ccccc2)C(C)(C)C)c1	strongly
C=CC(=O)c1ccc(Br)cc1	high
CC(C)N(CCC(=O)c1ccccn1)Cc1ccccc1	strongly
C=CC(=O)c1ccc2ccccc2c1	high

Which TG-activity-inhibiting action or protein-crosslinking-inhibiting action (in words) value is on record for Cc1nc(C)c(C(=O)CCN(Cc2ccccc2)C(C)C)s1 ?
strongly
